- experimental_system: purified recombinant rat FAAH (Rattus norvegicus, UniProt P97612)
- Construct: The truncated rat FAAH (rFAAH) was expressed in E. coli and purified as described; made in house; host or cells: E. coli
- Sequence (P97612 30-579 limits assumed): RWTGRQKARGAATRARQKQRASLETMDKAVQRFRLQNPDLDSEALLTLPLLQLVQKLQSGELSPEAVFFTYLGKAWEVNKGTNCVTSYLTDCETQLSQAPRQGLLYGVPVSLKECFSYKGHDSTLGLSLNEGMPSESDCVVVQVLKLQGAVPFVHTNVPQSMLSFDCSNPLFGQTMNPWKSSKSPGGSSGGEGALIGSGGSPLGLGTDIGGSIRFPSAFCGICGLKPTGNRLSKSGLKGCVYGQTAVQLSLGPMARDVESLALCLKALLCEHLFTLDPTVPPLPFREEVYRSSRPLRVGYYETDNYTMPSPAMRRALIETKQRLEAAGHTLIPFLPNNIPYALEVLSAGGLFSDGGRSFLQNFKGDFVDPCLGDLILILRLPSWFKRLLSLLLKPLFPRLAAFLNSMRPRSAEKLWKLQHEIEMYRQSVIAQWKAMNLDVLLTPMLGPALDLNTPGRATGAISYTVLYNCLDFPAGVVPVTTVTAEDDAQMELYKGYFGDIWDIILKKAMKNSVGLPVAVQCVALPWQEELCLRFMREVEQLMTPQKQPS
- run_description: FAAH inhibition enzyme assay (14C-oleamide hydrolysis, Dixon plot)
- Format: biochemical
- test_conditions: rat FAAH
- Experimental: […] The inhibition assays were performed as described (Cravatt, B. F.; et al. Science 1995, 268, 1506-1509). […] The ^14C-labeled oleamide (substrate) and oleic acid (product) were extracted with EtOAc and analyzed by TLC as detailed (Cravatt, B. F.; et al. Science 1995, 268, 1506-1509). […]
measurement_name: FAAH inhibitory potency (in words)

Solved cases (4 shown):
>>> assay_result("O=C(CCCCCCc1cccnc1)c1ncc(-c2ccccn2)o1")
"reductions in the Ki"
>>> assay_result("O=C(CCCCCCc1ccccn1)c1ncc(-c2ccccn2)o1")
"reductions in the Ki"
>>> assay_result("O=C(CSCCCCc1ccccc1)c1ncc(-c2ccccn2)o1 [12b]")
"significant potency"
>>> assay_result("CS(=O)(=O)c1cccc(CCCCCCC(=O)c2ncc(-c3ccccn3)o2)c1")
"significant potency"

Next item in the queue.
The compound listed as O=C(CCCCCSc1ccccc1)c1ncc(-c2ccccn2)o1 [12p] shows FAAH inhibitory potency (in words) equal to significant potency
